# reported IC50; entries follow
Target: flag-tagged HIF1α (AA 786-826) / His6-tagged p300 (AA 323-423) complex (Homo sapiens)
Construct: His6-tagged p300 (AA 323-423); made in house; host or cells: E. coli (pETDuet vector)
Assay: HIF1α p300 displacement assay (TR FRET, +CHAPS)
Format: binding
Conditions: read-out: IC50 (nM) (HIF1α_p300 Displacement + CHAPS)
Bridge positions count the residues as written; N and C are the ends. Square brackets hold non-standard residues; d marks the D form. Peptide text beside a SMILES is read from it. Cba = N[C@@H](CC1CCC1)C(=O)O; S5 = C=CCCC[C@](C)(N)C(=O)O

CC[C@H](C)[C@H](NC(=O)[C@H](Cc1ccccc1)NC(C)=O)C(=O)N[C@H](C(=O)N[C@@H](CCC(=O)O)C(=O)N[C@@H](CCC(=O)O)C(=O)N[C@H](C(=O)N[C@@H](CC(C)C)C(=O)N[C@@H](CCSC)C(=O)N[C@@]1(C)CCCC=CCCC[C@@](C)(C(=O)N[C@@H](CCSC)C(=O)N[C@@H](C)C(=O)N[C@@H](CC(C)C)C(N)=O)NC(=O)[C@H]([C@@H](C)CC)NC(=O)[C@H](C(C)C)NC(=O)[C@H](CC(C)C)NC1=O)C(C)C)[C@@H](C)O [SP-231] (Ac-FITEEVLM[S5]LVI[S5]MAL-NH2; staple 9-13) :: > 700 nM

q: I have this compound here, CC[C@H](C)[C@H](NC(=O)[C@H](Cc1ccccc1)NC(C)=O)C(=O)N[C@@H](CC(=O)O)C(=O)N[C@@H](CCC(=O)O)C(=O)N[C@@H](CCC(=O)O)C(=O)N[C@H](C(=O)N[C@@H](CC(C)C)C(=O)N[C@@H](CCSC)C(=O)N[C@@]1(C)CCCC=CCCC[C@@](C)(C(=O)N[C@@H](CCSC)C(=O)N[C@@H](C)C(=O)N[C@@H](CC2CCC2)C(N)=O)NC(=O)[C@H]([C@@H](C)CC)NC(=O)[C@H](C(C)C)NC(=O)[C@H](CC(C)C)NC1=O)C(C)C [SP-237] (Ac-FIDEEVLM[S5]LVI[S5]MA[Cba]-NH2; staple 9-13) , and I need its recorded IC50.
a: > 700 nM
